# Test system: MOLT-4 leukemia
# MEASUREMENT DESCRIPTION: NCI tumour cell line growth inhibition, 48 h
MEASUREMENT LABEL: TGI

These solved cases illustrate the format of a correct answer.
Any idea what TGI was measured for `CCOC(=O)c1c(CN2CCOCC2)n(Cc2ccccc2)c2c1cc(O)c1nc(C)c(C)nc12` ? > 100 µM

Any idea what TGI was measured for `CC(=O)CC(=O)ON(C)C(=O)Cc1ccccc1` ? > 100 µM

Any idea what TGI was measured for CN1C(=O)C(O)C[C@@H]1c1ccc(F)cc1 (some centres not stated) ? > 100 µM

Further cases:
Any idea what TGI was measured for `COc1cc[nH]c1/C=C1\C(=O)Nc2ccc([N+](=O)[O-])c(N3CC[C@@H](O)C3)c21` ? 2.4 µM

Any idea what TGI was measured for `NC(=S)N=Nc1c(O)[nH]c2ccccc12` ? > 1000 µM

Any idea what TGI was measured for Nc1ncnc2c1ncn2C1OC(C(=O)OCCO)C(O)C1O (configuration not stated) ? > 100 µM

Any idea what TGI was measured for `O=c1[nH]c(=S)c2[nH]c(=O)n(-c3ccccc3)c2[nH]1` ? > 100 µM

---

# Test system: SNB-19 CNS
# MEASUREMENT DESCRIPTION: NCI tumour cell line growth inhibition, 48 h
MEASUREMENT LABEL: GI50

These solved cases illustrate the format of a correct answer.
Any idea what GI50 was measured for `CSc1nc(-c2cccc(NC(=O)CCl)c2)c(C#N)c(=O)n1C` ? 1.63 µM

Any idea what GI50 was measured for `CCC(=O)Oc1ccc(/C=N/NC(N)=S)nc1` ? 14.2 µM

Any idea what GI50 was measured for `COc1cc2c3c(n(CCCN4CCN(CCO)CC4)c(=O)c2cc1OC)-c1cc2c(cc1C3=O)OCO2` ? 14.3 µM

Any idea what GI50 was measured for CCN1C(=O)N(CC)C2C1NN=c1s/c(=C\c3cnc(C)n3C)c(=O)n12 (stereo unspecified) ? 3.94 µM

Any idea what GI50 was measured for `C[C@H](CCCOS(C)(=O)=O)[C@H]1CC[C@H]2[C@@H]3CC[C@@H]4C[C@H](OS(C)(=O)=O)CC[C@]4(C)[C@H]3CC[C@]12C` ? 929 µM

Any idea what GI50 was measured for `COc1cc(OC)c2c(c1Cl)O[C@]1(C2=O)C(OCc2ccccc2)=CC(=O)C[C@H]1C` ? 5.68 µM

Any idea what GI50 was measured for `NS(=O)(=O)c1ccc(N=Nc2c(=O)[nH]c3ccc4[nH]cccc4c23)cc1` ? 0.428 µM

Any idea what GI50 was measured for CNCC1CCn2c(c(C3=C(c4cn(C)c5ccccc45)C(=O)NC3=O)c3ccccc32)C1 (stereo unspecified) ? 4.58 µM

Any idea what GI50 was measured for `CCCC(CCC)C(=O)O` ? > 20000 µM

Any idea what GI50 was measured for `O=C1C=C(OCC=C(Cl)Cl)C(=O)c2ccccc21` ? > 91.1 µM

Attention now turns to another entry.
Any idea what GI50 was measured for CC1SC(c2cccc(Cl)c2)N(NC(=O)C(O)c2ccccc2)C1=O (stereo unspecified) ? > 100 µM

---

# Test system: BT-549 breast
# MEASUREMENT DESCRIPTION: NCI tumour cell line growth inhibition, 48 h
MEASUREMENT LABEL: TGI

What is its TGI for BT-549 breast? Entry: `CCN(CC)c1ccc2cc(-c3csc(-c4ccc(N(C)C)cc4)n3)c(=O)oc2c1` > 100 µM

What is its TGI for BT-549 breast? Entry: `C=C(C)COC(=O)COCC(=O)OCC(=C)C` > 100 µM

What is its TGI for BT-549 breast? Entry: COc1cc(C2S/C(=C/c3ccccc3)C(=O)N2c2ccccn2)cc(OC)c1OC (stereo not drawn) 39 µM

What is its TGI for BT-549 breast? Entry: `CCCCn1c2c(n(CCCC)c1=[Se])-c1c(n(CCCC)c(=[Se])n1CCCC)S[Se][Se]S2` > 92.5 µM

What is its TGI for BT-549 breast? Entry: `CC(C)Cn1cnc2c(SCc3ccccn3)nc(N)nc21` > 100 µM

Further cases:
What is its TGI for BT-549 breast? Entry: CCc1ncc(C(C)(O)c2ccccc2)n1Cc1ccccc1 (stereo not drawn) > 100 µM

What is its TGI for BT-549 breast? Entry: `Nc1nc(N)c(-c2ccc(Cl)cc2)c(/C=C/c2ccc([N+](=O)[O-])cc2)n1` 90.3 µM

---

# Tested on: HOP-92 NSCLC
# MEASUREMENT DESCRIPTION: NCI tumour cell line growth inhibition, 48 h
TGI values, listed per item

Any idea what TGI was measured for `C[C@]12CC[C@H]3[C@@H](CCC4=CC(=O)CC[C@@]43C)[C@@H]1CC[C@@H]2OC(=O)c1cccc2c(=O)c3ccccc3[nH]c12` ? > 100 µM

Further cases:
Any idea what TGI was measured for `CCCCCCC(=O)CC(=O)C(=O)Nc1ccccc1C` ? > 100 µM

Any idea what TGI was measured for `CCO/N=C(/CC)c1ccc(Br)s1` ? > 100 µM

Any idea what TGI was measured for `COC(=O)[C@]1(C)CC[C@]2(C)CC[C@]3(C)C(=CC(=O)[C@@H]4[C@@]5(C)CCC(=O)NC(C)(C)[C@@H]5CC[C@]43C)[C@@H]2C1` ? 24.2 µM

Any idea what TGI was measured for `N#CC(CC(=O)O)=C(c1ccccc1)c1ccccc1` ? > 100 µM

Any idea what TGI was measured for O=S1Cc2ccccc2CSS1 (stereo not given) ? 31.8 µM

Any idea what TGI was measured for `NC(=S)N=Nc1c(O)[nH]c2ccccc12` ? 224 µM

Any idea what TGI was measured for `O=C(Nc1ccc(N2CCNCC2)cn1)c1[nH]ncc1Nc1ncnc2sc3c(c12)CCC3` ? > 100 µM

Any idea what TGI was measured for O=C1OC(=O)C2C1C1C(c3ccccc3)=C(c3ccccc3)C2(O)C2C(=O)OC(=O)C12 (stereo not given) ? > 100 µM

Any idea what TGI was measured for `CC(=O)Nc1nc(C)c(-c2cc3c(c(S(C)(=O)=O)c2)C(=O)N([C@@H](C)C2CC2)C3)s1` ? 64.1 µM

Any idea what TGI was measured for COC(=O)C(C(=O)C(=O)Nc1ccc(N)cc1[N+](=O)[O-])c1nc2ccc(Cl)cc2[nH]c1=O (stereo not given) ? > 100 µM

Any idea what TGI was measured for COc1ccc(NC(C)=O)cc1N1C(=O)/C(=C\c2cccc(Oc3ccccc3)c2)SC1c1ccccc1 (stereo not given) ? 79.6 µM

Any idea what TGI was measured for `CCCCn1c2c(n(CCCC)c1=[Se])-c1c(n(CCCC)c(=[Se])n1CCCC)S[Se][Se]S2` ? 5.93 µM

---

# System: U251 CNS
# MEASUREMENT DESCRIPTION: NCI tumour cell line growth inhibition, 48 h
MEASUREMENT LABEL: TGI

These solved cases illustrate the format of a correct answer.
Any idea what TGI was measured for `Cc1ccc(S(=O)(=O)NC(=O)NCC(=O)O)cc1` ? > 100 µM

Any idea what TGI was measured for `Cc1nc2c(s/c(=N\N)n2-c2ccccc2)c(=O)n1C` ? > 100 µM

Any idea what TGI was measured for `O=C(O)CSc1nnc2c3ccccc3c3ccccc3c2n1` ? > 100 µM

Any idea what TGI was measured for `Cc1cccc(/C=C2\CCCCCC2=O)c1` ? > 100 µM

Further cases:
Any idea what TGI was measured for `Nc1nc(N)c(-c2ccc(Cl)cc2)c(/C=C/c2ccc([N+](=O)[O-])cc2)n1` ? 23.8 µM

Any idea what TGI was measured for `CCOC(=O)/C=C1\C[C@H](NC(=O)OCc2ccccc2)C(=O)N1CC(=O)OCC` ? > 100 µM

Any idea what TGI was measured for CN1C(=O)C(O)C[C@@H]1c1ccc(F)cc1 (stereo partly drawn) ? > 100 µM

Any idea what TGI was measured for CC(=O)Nc1ccc(OCC(O)CO)cc1 (stereo not drawn) ? > 100 µM

Any idea what TGI was measured for CC(=O)OC1(C#N)CC2OC1C1NC21 (stereo not drawn) ? > 100 µM

Any idea what TGI was measured for Nc1nc2c(ncn2CC(CO)CC(c2ccccc2)P(=O)(O)O)c(=O)[nH]1 (stereo not drawn) ? > 100 µM

Any idea what TGI was measured for CCCCCCCCCCCCCCCC(N)c1ccccc1 (stereo not drawn) ? 3.2 µM

Any idea what TGI was measured for `CN/N=C(/CC(=O)c1sc(NNC(C)=O)nc1C)C(=O)Nc1ccc(OC)cc1OC` ? > 100 µM

Any idea what TGI was measured for `COc1ccc(-c2cc(-c3ccccc3)nc(N)n2)c(O)c1` ? > 100 µM
